Please provide measured inhibition at 0.1 µM for the entries that follow.
target: androgen receptor (AR) (Homo sapiens); test: Degradation of androgen receptor (AR) protein in VCaP cells by Western blot; type: cell-based; settings: percentage of degraded AR at 100 nM, VCaP cells, 16 h
Sequence (P10275 whole entry): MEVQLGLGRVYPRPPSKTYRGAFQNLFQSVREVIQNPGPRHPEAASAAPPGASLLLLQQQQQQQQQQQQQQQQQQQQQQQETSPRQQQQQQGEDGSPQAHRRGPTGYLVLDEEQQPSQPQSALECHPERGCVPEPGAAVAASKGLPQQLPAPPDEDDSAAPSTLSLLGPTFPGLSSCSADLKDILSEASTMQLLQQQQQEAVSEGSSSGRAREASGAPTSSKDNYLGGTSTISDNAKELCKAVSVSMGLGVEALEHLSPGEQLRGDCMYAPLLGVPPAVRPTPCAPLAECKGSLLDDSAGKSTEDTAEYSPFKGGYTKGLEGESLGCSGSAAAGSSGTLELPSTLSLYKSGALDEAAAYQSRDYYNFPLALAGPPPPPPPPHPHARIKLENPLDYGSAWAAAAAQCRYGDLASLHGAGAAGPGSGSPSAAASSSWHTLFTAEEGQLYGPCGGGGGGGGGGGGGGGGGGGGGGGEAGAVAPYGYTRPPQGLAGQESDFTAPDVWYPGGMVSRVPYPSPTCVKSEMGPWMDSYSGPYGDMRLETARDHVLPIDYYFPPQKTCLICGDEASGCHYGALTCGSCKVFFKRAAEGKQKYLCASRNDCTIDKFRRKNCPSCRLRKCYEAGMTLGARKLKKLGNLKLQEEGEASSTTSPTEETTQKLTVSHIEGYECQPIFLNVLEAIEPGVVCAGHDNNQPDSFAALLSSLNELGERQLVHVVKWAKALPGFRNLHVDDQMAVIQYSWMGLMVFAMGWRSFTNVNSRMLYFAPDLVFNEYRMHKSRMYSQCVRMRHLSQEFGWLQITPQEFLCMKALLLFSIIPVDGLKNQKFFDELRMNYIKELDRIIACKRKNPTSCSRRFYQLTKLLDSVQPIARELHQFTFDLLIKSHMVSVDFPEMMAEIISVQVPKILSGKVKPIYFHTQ

Query: Output measured inhibition at 0.1 µM for this item: N#Cc1ccc(O[C@H]2CC[C@H](NC(=O)c3ccc(N4CCN([C@@H]5C[C@@H]6CN(c7cc8c(cc7F)C(=O)N(C7CCC(=O)NC7=O)C8=O)C[C@@H]6C5)CC4)nn3)CC2)cc1Cl (some centres unmarked) [Compound 297]
Response: 25 to 49%

Query: Output measured inhibition at 0.1 µM for this item: N#Cc1ccc(O[C@H]2CC[C@H](NC(=O)c3cnc(N4CC5CN(C6CCN(c7ccc8c(c7)C(=O)N(C7CCC(=O)NC7=O)C8=O)CC6)CC5C4)cn3)CC2)cc1Cl (some centres unmarked) [Compound 69]
Response: < 25%

Query: Output measured inhibition at 0.1 µM for this item: N#Cc1ccc(OC2C[C@@H]3CN(C(=O)c4ccc(N5CCC(CN6CCN(c7ccc8c(c7)C(=O)N(C7CCC(=O)NC7=O)C8=O)CC6)CC5)nn4)C[C@@H]3C2)cc1Cl (some centres unmarked) [Compound 218]
Response: < 25%

Query: Output measured inhibition at 0.1 µM for this item: CC1(C)[C@H](NC(=O)c2ccc(N3CC4CN(C5CCN(c6cc7c(cc6F)C(=O)N(C6CCC(=O)NC6=O)C7=O)CC5)CC4C3)nn2)C(C)(C)[C@H]1Oc1ccc(C#N)c(Cl)c1 (some centres unmarked) [Compound 72]
Response: 25 to 49%

Query: Output measured inhibition at 0.1 µM for this item: N#Cc1ccc(O[C@H]2CC[C@H](NC(=O)c3ccc(N4CCC(NC5CCN(c6ccc7c(c6)C(=O)N(C6CCC(=O)NC6=O)C7=O)CC5)CC4)cc3)CC2)cc1Cl (some centres unmarked) [Compound 302]
Response: < 25%

###

biological target: UniProt:P10275; assay: Degradation of androgen receptor (AR) protein in VCaP cells by ELISA; format: cell-based; settings: AR degradation, VCaP cells, 16 h, ELISA, Table 3-1; read-out: DC50
recordedEndpoint: DC50

Query: Output measured DC50 for this item: CC1(C)[C@H](Oc2ccc(C#N)c(Cl)c2)C(C)(C)[C@H]1N1Cc2nc(C#CC3CCC(N4CCC5(CC4)CN(c4cc6c(cc4F)C(=O)N(C4CCC(=O)NC4=O)C6=O)C5)CC3)ccc2C1=O (some centres unmarked) [Compound 363]
Response: 0.01 to 0.1 µM

Query: Output measured DC50 for this item: N#Cc1ccc(O[C@H]2CC[C@H](NC(=O)c3cnc(N4CCN(C5CC6(CCN(c7cc8c(cc7F)C(=O)N(C7CCC(=O)NC7=O)C8=O)CC6)C5)CC4)cn3)CC2)cc1Cl (some centres unmarked) [Compound 277]
Response: 0.01 to 0.1 µM

Query: Output measured DC50 for this item: N#Cc1ccc(O[C@H]2CC[C@H](NC(=O)c3cnc(N4CCC5(CC4)CN(CC4CCN(c6cc7c(cc6F)C(=O)N(C6CCC(=O)NC6=O)C7=O)CC4)C5)cn3)CC2)cc1Cl (some centres unmarked) [Compound 76]
Response: < 0.01 µM

Query: Output measured DC50 for this item: N#Cc1ccc(O[C@H]2CC[C@H](NC(=O)c3cnn([C@H]4CC[C@H](CN5CCC6(CC5)CN(c5cc7c(cc5F)C(=O)N(C5CCC(=O)NC5=O)C7=O)C6)CC4)c3)CC2)cc1Cl (some centres unmarked) [Compound 246]
Response: 0.01 to 0.1 µM

Query: Output measured DC50 for this item: C[C@H]1CN(c2ccc(C(=O)N[C@H]3CC[C@H](Oc4ccc(C#N)c(Cl)c4)CC3)nn2)CCN1C[C@H]1[C@@H]2CN(c3cc4c(cc3F)C(=O)N(C3CCC(=O)NC3=O)C4=O)C[C@@H]21 (some centres unmarked) [Compound 168]
Response: < 0.01 µM
